Molecular target: D3 receptor (Homo sapiens)
Construct: expressed in transfected cells
Sequence (P35462 whole entry): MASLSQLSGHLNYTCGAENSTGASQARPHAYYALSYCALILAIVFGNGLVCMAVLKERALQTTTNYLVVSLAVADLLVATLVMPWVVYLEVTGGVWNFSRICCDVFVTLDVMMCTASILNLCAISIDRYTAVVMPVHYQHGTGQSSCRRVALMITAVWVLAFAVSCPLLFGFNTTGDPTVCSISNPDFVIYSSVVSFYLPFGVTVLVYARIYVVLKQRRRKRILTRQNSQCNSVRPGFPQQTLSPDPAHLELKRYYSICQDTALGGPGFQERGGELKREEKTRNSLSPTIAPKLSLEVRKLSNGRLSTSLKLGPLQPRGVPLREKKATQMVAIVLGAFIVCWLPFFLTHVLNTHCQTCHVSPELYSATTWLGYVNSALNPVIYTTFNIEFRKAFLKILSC
Assay: cAMP content in cells stably expressing D3 receptors (CHO-D3, forskolin, HTRF)
Assay type: cell-based
Hi! Just check whether EC50 is below 1 nM. Below gives yes, equal or above gives no.

C[C@@H]1CN(CCC2CC(NC(=O)C(C)(C)O)C2)CCN1c1cccc(Cl)c1Cl (some centres unmarked) = yes
O=C(N[C@H]1C[C@H](CCN2CCN(c3cccc(Cl)c3Cl)CC2)C1)c1ccno1 [Example 15A] = yes
O=C(NC1CC(CCN2CCN(c3cccc(Cl)c3Cl)CC2)C1)c1cccnc1 (centres unmarked) = no

Now consider a different compound.
Does the reported EC50 of O=C(N[C@H]1C[C@H](CCN2CCN(c3cccc(Cl)c3Cl)CC2)C1)c1ccon1 [Example 17A] stay below 1 nM?
no

---

Biological target: 5-HT2A receptor (Homo sapiens, UniProt P28223)
Sequence (P28223 whole entry): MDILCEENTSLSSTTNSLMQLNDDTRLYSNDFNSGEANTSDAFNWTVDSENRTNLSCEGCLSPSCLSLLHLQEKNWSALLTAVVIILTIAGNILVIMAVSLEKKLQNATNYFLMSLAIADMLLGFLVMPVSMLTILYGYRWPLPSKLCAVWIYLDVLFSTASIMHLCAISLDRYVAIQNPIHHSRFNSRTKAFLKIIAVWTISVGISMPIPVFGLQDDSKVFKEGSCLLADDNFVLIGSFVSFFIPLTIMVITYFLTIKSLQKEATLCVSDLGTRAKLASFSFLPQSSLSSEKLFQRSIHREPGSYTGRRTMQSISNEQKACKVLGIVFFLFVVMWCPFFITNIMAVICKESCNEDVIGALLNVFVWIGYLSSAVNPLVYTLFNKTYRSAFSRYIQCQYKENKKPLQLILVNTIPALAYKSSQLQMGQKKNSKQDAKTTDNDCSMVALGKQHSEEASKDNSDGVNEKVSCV
Experiment: Calcium ion mobility in cells stably expressing 5-HT2A receptors (Flp-In-CHO-5HT2A, FLIPR)
Type: cell-based
Design: expressed in transfected cells
Conditions: Flp-In-CHO-5HT2A stable pool, 5HT stimulation
reported.metric: IC50
Write the numeric value and append its unit.

Below: 5 compounds and their reported IC50.
O=C(N[C@H]1C[C@H](CCN2CCN(c3cccc(Cl)c3Cl)CC2)C1)c1ccno1 [Example 15A] = 3.14 nM
O=C(N[C@H]1C[C@@H](CCN2CCN(c3cccc(Cl)c3Cl)CC2)C1)c1ncco1 [Example 12B] = 11.6 nM
O=C(NC1CC(CCN2CCN(c3cccc(Cl)c3Cl)CC2)C1)c1cccnc1 (stereo not drawn) = 48 nM
Cc1cc(C(=O)NC2CC(CCN3CCN(c4cccc(Cl)c4Cl)CC3)C2)on1 (stereo not drawn) [Example 14] = 13.4 nM
Cc1ncc(C(=O)NC2CC(CCN3CCN(c4cccc(Cl)c4Cl)CC3)C2)o1 (stereo not drawn) [Example 16A] = 4.28 nM

# IC50 (compound: O=C(N[C@H]1C[C@H](CCN2CCN(c3cccc(Cl)c3Cl)CC2)C1)c1nccs1 ) is 2.74 nM

# IC50 (compound: O=C(NC1CC(CCN2CCN(c3cccc(Cl)c3Cl)CC2)C1)c1ccno1 (stereo not drawn) ) is 8.06 nM

# IC50 (compound: O=C(NC1CC(CCN2CCN(c3cccc(Cl)c3Cl)CC2)C1)c1ncco1 (stereo not drawn) ) is 5.2 nM

# IC50 (compound: Cc1cnoc1C(=O)N[C@H]1C[C@H](CCN2CCN(c3cccc(Cl)c3Cl)CC2)C1 [Example 13A] ) is 11.7 nM

# IC50 (compound: COC1CN(C(=O)NC2CC(CCN3CCN(c4cccc(Cl)c4Cl)CC3)C2)C1 (stereo not drawn) ) is 22.1 nM

# IC50 (compound: O=C(N[C@H]1C[C@H](CCN2CCN(c3cccc(Cl)c3Cl)CC2)C1)C1(O)CC1 ) is 3.07 nM

# IC50 (compound: O=C(N[C@H]1C[C@H](CCN2CCN(c3cccc(Cl)c3Cl)CC2)C1)c1ncco1 [Example 12A] ) is 2.21 nM
